Assayed target: Farnesyltransferase (FTase) (Bos taurus, UniProt P29702+P49355)
Construct: precipitation from a beef brain homogenate; from tissue; host or cells: bovine brain
Sequence (P49355 whole entry, one chain of several): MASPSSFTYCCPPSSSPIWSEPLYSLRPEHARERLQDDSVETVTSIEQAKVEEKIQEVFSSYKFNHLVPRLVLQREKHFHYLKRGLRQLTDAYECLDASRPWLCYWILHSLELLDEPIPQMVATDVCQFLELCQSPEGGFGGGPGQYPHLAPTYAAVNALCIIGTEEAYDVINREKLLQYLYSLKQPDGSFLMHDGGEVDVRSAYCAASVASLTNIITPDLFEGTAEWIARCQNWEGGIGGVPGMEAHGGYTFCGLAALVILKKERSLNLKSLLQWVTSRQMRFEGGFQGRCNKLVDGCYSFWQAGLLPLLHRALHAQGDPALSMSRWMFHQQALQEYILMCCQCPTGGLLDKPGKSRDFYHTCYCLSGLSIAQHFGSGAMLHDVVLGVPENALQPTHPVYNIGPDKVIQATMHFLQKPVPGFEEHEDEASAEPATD
Assay info: Farnesyltransferase inhibition (scintillation proximity assay, [3H]-FPP / biotin-K-ras peptide)
Type: biochemical, bovine
Details: compound at 10^−6 M; bovine FTase, 37° C., 30 minutes
Structures can show the parent of a compound that is named as a salt.
Measured endpoint: inhibition at 1 µM (%)
Use % as the unit, but write only the number.

# example entries with known answers
INSERT INTO measurements (molecule, assayed_target, unit_text, value) VALUES
  ('C=CCN(Cc1cncn1C)c1ccc(C#N)c(-c2cccc3ccccc23)c1', 'Farnesyltransferase (FTase) (Bos taurus, UniProt P29702+P49355)', '%', 100),
  ('Cc1ccccc1-c1cc(C(OCc2ccc(Cl)c(Cl)c2)c2cncn2C)ccc1C#N (stereo not drawn) [Example 125, hydrochloride]', 'Farnesyltransferase (FTase) (Bos taurus, UniProt P29702+P49355)', '%', 97),
  ('Cc1ccccc1-c1cc(C(O)(CCc2ccccc2)c2cncn2C)ccc1C#N (stereo not drawn)', 'Farnesyltransferase (FTase) (Bos taurus, UniProt P29702+P49355)', '%', 96),
  ('Cc1ccccc1-c1cc(C(OCc2c(Cl)cccc2Cl)c2cncn2C)ccc1C#N (stereo not drawn) [Example 124, hydrochloride]', 'Farnesyltransferase (FTase) (Bos taurus, UniProt P29702+P49355)', '%', 90),
  ('Cn1cncc1C(OCc1ccc(C#N)c(F)c1)c1ccc(C#N)c(-c2cccc3ccccc23)c1 (stereo not drawn) [Example 77, hydrochloride]', 'Farnesyltransferase (FTase) (Bos taurus, UniProt P29702+P49355)', '%', 100);

Quote inhibition at 1 µM reported for CCN(Cc1ccc([N+](=O)[O-])cc1)C(c1ccc(C#N)c(-c2ccccc2C)c1)c1cncn1C (stereo not drawn) [Example 27, dihydrochloride] please.
100

Quote inhibition at 1 µM reported for Cc1ccccc1-c1cc(N(Cc2ccccc2)Cc2cnc[nH]2)ccc1C#N please.
100

Quote inhibition at 1 µM reported for Cn1cncc1C(OCc1ccc(C#N)cc1)c1ccc(C#N)c(-c2ccccc2CO)c1 (stereo not drawn) please.
96

Quote inhibition at 1 µM reported for Cc1ccccc1-c1cc(C(OCc2cc(Cl)nc(Cl)c2)c2cncn2C)ccc1C#N (stereo not drawn) [Example 137, hydrochloride] please.
96

Quote inhibition at 1 µM reported for Cn1cncc1C(OCc1ccc(C#N)cc1)c1cnc(C#N)c(-c2cccc3ccccc23)c1 (stereo not drawn) [Example 275, dihydrochloride] please.
100

Quote inhibition at 1 µM reported for COC(=O)c1ccc(CNC(c2ccc(C#N)c(-c3cccc4ccccc34)c2)c2cncn2C)nc1 (stereo not drawn) [Example 52, trihydrochloride] please.
100

Quote inhibition at 1 µM reported for CNC(=O)c1ccc(COC(c2ccc(C#N)c(-c3ccccc3C)c2)c2cncn2C)cc1 (stereo not drawn) please.
95

---

Recorded inhibition at 1 µM for the following compounds
Assayed target: Farnesyltransferase (FTase) (Bos taurus, UniProt P29702+P49355)
Construct: precipitation from a beef brain homogenate; from tissue; host or cells: bovine brain
Assay info: Farnesyltransferase inhibition (scintillation proximity assay, [3H]-FPP / biotin-K-ras peptide)
Assay type: biochemical, bovine
Details: compound at 10^−6 M; bovine FTase, 37° C., 30 minutes
Structures can show the parent of a compound that is named as a salt.
Returns: string containing the number followed by the unit.

INSERT INTO assay_data (compound, value) VALUES
  ('Cc1cc(COC(c2ccc(C#N)c(-c3ccccc3C)c2)c2cncn2C)no1 (stereo not drawn) [Example 177, hydrochloride]', '77%'),
  ('CCCCCCN(Cc1cncn1C)c1ccc(C#N)c(-c2cccc3ccccc23)c1', '100%');

Quote inhibition at 1 µM reported for Cn1cncc1C(OCc1ccc(C#N)c(-c2cccc3ccccc23)c1)c1ccccc1 (stereo not drawn) [Example 256, hydrochloride] please.
94%

Quote inhibition at 1 µM reported for Cc1ccccc1-c1cc(C(OCc2cc3c(cc2Cl)OCO3)c2cncn2C)ccc1C#N (stereo not drawn) [Example 152, hydrochloride] please.
89%

Quote inhibition at 1 µM reported for Cn1cncc1C(OCc1ccc(Cl)c(Cl)c1)c1ccc(C#N)c(-c2ccccc2C(F)(F)F)c1 (stereo not drawn) [Example 248, hydrochloride] please.
98%

Quote inhibition at 1 µM reported for Cc1ccccc1-c1cc(C(Oc2ccccc2)c2cncn2C)ccc1C#N (stereo not drawn) [Example 4, hydrochloride] please.
88%

Quote inhibition at 1 µM reported for Cc1ccccc1-c1cc(C(OCc2ccc(Cl)cc2)c2cncn2C)ccc1C#N (stereo not drawn) [Example 133, hydrochloride] please.
97%

Quote inhibition at 1 µM reported for Cn1cncc1C(OCc1ccc(C#N)cc1)c1ccc(C#N)c(-c2cc3ccccc3s2)c1 (stereo not drawn) [Example 203, hydrochloride] please.
86%

Quote inhibition at 1 µM reported for Cc1ccccc1-c1cc(C(OCc2ccc(-c3ccccc3)cc2)c2cncn2C)ccc1C#N (stereo not drawn) [Example 161, hydrochloride] please.
96%

Quote inhibition at 1 µM reported for COC(=O)c1ccc(CN(Cc2ccc(C#N)c(-c3cccc4ccccc34)c2)Cc2cncn2C)nc1 please.
95%

Quote inhibition at 1 µM reported for Cn1cncc1C(OCc1ccc(C#N)cc1)c1ccc(C#N)c(-c2ccccc2C=O)c1 (stereo not drawn) [Example 200, hydrochloride] please.
99%

Quote inhibition at 1 µM reported for Cc1ccccc1-c1cc(C(OCc2cccc(Cl)c2)c2cncn2C)ccc1C#N (stereo not drawn) [Example 120, hydrochloride] please.
90%

Quote inhibition at 1 µM reported for Cn1cncc1C(NCc1ccc(C#N)cc1)c1ccc(C#N)c(-c2cccc3ccccc23)c1 (stereo not drawn) [Example 13, dihydrochloride] please.
100%

Quote inhibition at 1 µM reported for Cn1cncc1C(NCc1ccc(C#N)c(Cl)c1)c1ccc(C#N)c(-c2cccc3ccccc23)c1 (stereo not drawn) [Example 35, dihydrochloride] please.
100%

Quote inhibition at 1 µM reported for Cc1ccccc1-c1cc(C(OCc2cccc(F)c2)c2cncn2C)ccc1C#N (stereo not drawn) [Example 136, hydrochloride] please.
95%

---

Recorded inhibition at 1 µM for the following compounds
Assayed target: Farnesyltransferase (FTase) (Bos taurus, UniProt P29702+P49355)
Construct: precipitation from a beef brain homogenate; from tissue; host or cells: bovine brain
Assay info: Farnesyltransferase inhibition (scintillation proximity assay, [3H]-FPP / biotin-K-ras peptide)
Format: biochemical, bovine
Details: compound at 10^−6 M; bovine FTase, 37° C., 30 minutes
Where a name gives a salt, the structure may show the parent alone.
Use % as the unit, but write only the number.

INSERT INTO assay_data (compound, measured_endpoint, unit_text, value) VALUES
  ('COc1ccc(-c2nc(COC(c3ccc(C#N)c(-c4ccccc4C)c3)c3cncn3C)no2)cc1 (stereo not shown) [Example 172, hydrochloride]', 'inhibition at 1 µM', '%', 85),
  ('N#Cc1ccc(COC(c2ccc(C#N)c(-c3cccc4ccccc34)c2)c2cn(C(c3ccccc3)(c3ccccc3)c3ccccc3)cn2)cc1 (stereo not shown) [Example 49]', 'inhibition at 1 µM', '%', 62),
  ('Cn1cncc1CN(C(=O)c1ccccc1)c1ccc(C#N)c(-c2cccc3ccccc23)c1 [Example 235]', 'inhibition at 1 µM', '%', 100),
  ('CN(Cc1ccc(C#N)cc1)C(c1ccc(C#N)c(-c2cccc3ccccc23)c1)c1cncn1C (stereo not shown) [Example 29]', 'inhibition at 1 µM', '%', 100),
  ('Cn1cncc1CN(Cc1ccc(C#N)cc1)c1ccc(C#N)c(-c2cccc3ccccc23)c1 [Example 231]', 'inhibition at 1 µM', '%', 100),
  ('CC(NC(c1ccc(C#N)c(-c2cccc3ccccc23)c1)c1cncn1C)c1ccc(C#N)cc1 (stereo not shown) [Example 36, dihydrochloride]', 'inhibition at 1 µM', '%', 100),
  ('Cn1cncc1C(OCc1ccc(C#N)cc1)c1ccc(C#N)c(-c2ccccc2C(F)(F)F)c1 (stereo not shown) [Example 201, hydrochloride]', 'inhibition at 1 µM', '%', 99),
  ('Cn1cncc1C(OCc1ccccc1)c1ccc(C#N)c(C2CCCCC2)c1 (stereo not shown) [Example 100, hydrochloride]', 'inhibition at 1 µM', '%', 83),
  ('Cc1ccccc1-c1cc(C(OCc2ccccc2)c2ccsc2)ccc1C#N (stereo not shown) [Example 80]', 'inhibition at 1 µM', '%', 12),
  ('Cc1ccccc1-c1cc(C(O)c2cccnc2)ccc1C#N (stereo not shown) [Example 211]', 'inhibition at 1 µM', '%', 30);

Switching to the query record.
Quote inhibition at 1 µM reported for COc1ccc(C(C)=O)cc1COC(c1ccc(C#N)c(-c2ccccc2C)c1)c1cncn1C (stereo not shown) [Example 170, hydrochloride] please.
85

---

Assayed target: Farnesyltransferase (FTase) (Bos taurus, UniProt P29702+P49355)
Construct: precipitation from a beef brain homogenate; from tissue; host or cells: bovine brain
Assay info: Farnesyltransferase inhibition (scintillation proximity assay, [3H]-FPP / biotin-K-ras peptide)
Assay type: biochemical, bovine
Details: compound at 10^−6 M; bovine FTase, 37° C., 30 minutes
Counter-ions that a name gives are not always drawn.
Measured endpoint: inhibition at 1 µM (%)
Use % as the unit, but write only the number.

# example entries with known answers
INSERT INTO results (compound, measured_endpoint, value) VALUES
  ('Cc1ccccc1-c1cc(C(OCc2cccc(C#N)c2)c2cncn2C)ccc1C#N (stereo not shown) [Example 113, hydrochloride]', 'inhibition at 1 µM', 90),
  ('Cn1cncc1CN(Cc1ccc(C#N)cc1)Cc1ccc(C#N)c(-c2cccc3ccccc23)c1', 'inhibition at 1 µM', 100),
  ('Cc1ccccc1-c1cc(C(OCc2ncc(C(F)(F)F)cc2Cl)c2cncn2C)ccc1C#N (stereo not shown) [Example 182, hydrochloride]', 'inhibition at 1 µM', 89);

Switching to the query record.
System Farnesyltransferase (FTase) (Bos taurus, UniProt P29702+P49355). Read-out inhibition at 1 µM. Item N#Cc1ccc(CN(Cc2ccc(C#N)c(-c3cccc4ccccc34)c2)Cc2cnc[nH]2)cc1 [Example 45, dihydrochloride] . Report value.
100
